System: HT29 colon
Protocol notes: NCI-60 one-dose screen, 48 h (100 = growth as untreated, 0 = no growth, -100 = all killed)
Run parameters: 10 µM unless noted
The panel holds about 83,000 compounds, 20% with a hit somewhere; the sample as a whole holds those more often. Active and inactive are the calls of the source. The calls were made as follows: active = growth percent below 10; inactive = the rest.
Attribute measured: growth

structure_as_smiles=N#CSCC(=O)c1ccc(Cl)cc1 result_value="-19.4% (active)"

Request body: readout growth, system HT29 colon, query `OC(CNc1ccnc2cc(Cl)ccc12)CNc1ccnc2cc(Cl)ccc12` . Return the value.
7.67% (active)

Request body: readout growth, system HT29 colon, query `CN=C(N)N/N=C(\C)c1ccc2c(c1)Cc1cc(/C(C)=N/NC(N)=NC)ccc1-2` . Return the value.
-49.7% (active)
